Molecular target: human CB2R (Homo sapiens, UniProt P34972)
Construct: host or cells: CHO cells
Sequence (P34972 whole entry): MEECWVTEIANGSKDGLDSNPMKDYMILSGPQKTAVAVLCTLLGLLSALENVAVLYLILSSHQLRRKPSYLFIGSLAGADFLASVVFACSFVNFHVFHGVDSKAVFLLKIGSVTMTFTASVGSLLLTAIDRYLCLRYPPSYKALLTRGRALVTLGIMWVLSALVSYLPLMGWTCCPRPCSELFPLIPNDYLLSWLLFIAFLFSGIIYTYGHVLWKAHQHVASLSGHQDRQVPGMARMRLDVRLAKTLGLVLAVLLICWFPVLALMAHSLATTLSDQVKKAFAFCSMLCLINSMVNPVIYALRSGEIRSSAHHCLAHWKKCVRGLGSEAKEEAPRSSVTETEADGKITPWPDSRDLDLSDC
Assay: CB2R mediated modulation of cAMP synthesis
Assay type: cell-based
Provide the reported pEC50 of each item.
Answers are plain numbers, as −log10 of the molar value.

Sample answers from the record:
CC(C)(C)c1cc(NC(=O)C(C)(C)S(=O)(=O)C2CCCC2)on1: 9.05
Cc1nc(NC(=O)C(C)(C)S(=O)(=O)Cc2ccc(Cl)cc2)sc1C(C)(C)C: 7.92

Consider the record given below.
// query // pEC50 lookup, key: CC(C)(C(=O)Nc1nc(-c2ccc(Cl)cc2)cs1)S(=O)(=O)C1CCCC1
// result 8.82
